Could you please report measured inhibition at 25 µM for the items listed next?
MEASURED_TARGET: CYP3A4 (Homo sapiens)
Sequence (P08684 whole entry): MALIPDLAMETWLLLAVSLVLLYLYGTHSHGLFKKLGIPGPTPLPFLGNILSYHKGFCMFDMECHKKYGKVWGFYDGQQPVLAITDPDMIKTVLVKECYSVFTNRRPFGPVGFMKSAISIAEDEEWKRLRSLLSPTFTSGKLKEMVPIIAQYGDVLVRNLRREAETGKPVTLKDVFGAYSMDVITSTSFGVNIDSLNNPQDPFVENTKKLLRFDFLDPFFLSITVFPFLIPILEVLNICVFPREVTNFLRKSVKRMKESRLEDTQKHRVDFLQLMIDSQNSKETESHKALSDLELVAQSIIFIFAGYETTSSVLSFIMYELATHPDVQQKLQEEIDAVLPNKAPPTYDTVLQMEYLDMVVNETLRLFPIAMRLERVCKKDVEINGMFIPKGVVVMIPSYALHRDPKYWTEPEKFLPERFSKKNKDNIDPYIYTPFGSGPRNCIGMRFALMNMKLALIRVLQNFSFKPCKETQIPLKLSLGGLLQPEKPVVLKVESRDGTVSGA
TEST_DETAILS: Inhibition of CYP3A4 in human microsomes at 25 uM
Type: ADME, Microsome
Give bare numbers, in %.

Example entries begin here.
CCOCCn1cc(C2CCN(CCOc3ccccc3C(=O)O)CC2)c2ccccc21 ... 0
COCCn1cc(C2CCN(Cc3ccc(OC)c(C(=O)O)c3)CC2)c2ccccc21 ... -9
COCCn1cc(C2CCN(CCOc3ccccc3C(=O)O)CC2)c2ccc(F)cc21 ... 15

Moving on to the next molecule.
Entry under review: COc1ccc(CN2CCC(c3cn(Cc4cccs4)c4ccccc34)CC2)cc1C(=O)O . Reported inhibition at 25 µM? -5

---

TEST_DETAILS: Clearance in Wistar rat at 1 mg/kg, iv after 8 hrs
Assay type: ADME, organism-based
Parameters: dose 1 mg/kg, route intravenous
SETTINGS: in vivo
Classification field: enter MET for clearance values not below 5 mL/min/kg, NOT MET for values below it.

Solved entries:
COCCn1cc(C2CCN(CCOc3ccccc3C(=O)O)CC2)c2ccc(F)cc21 ... NOT MET
CCOCCn1cc(C2CCN(CCOc3ccccc3C(=O)O)CC2)c2cc(OC)ccc21 ... MET
COc1ccc(CN2CCC(c3cn(Cc4cccs4)c4ccccc34)CC2)cc1C(=O)O ... MET
CCOCCn1cc(C2CCN(CCOc3ccccc3C(=O)O)CC2)c2ccccc21 ... MET
CCCCn1cc(C2CCN(CCOc3ccccc3C(=O)O)CC2)c2ccccc21 ... MET

Determine whether this compound has clearance no lower than 5 mL/min/kg: COCCn1cc(C2CCN(Cc3ccc(OC)c(C(=O)O)c3)CC2)c2ccccc21 NOT MET

---

TEST_DETAILS: Half life in Wistar rat at 1 mg/kg, iv after 8 hrs
Format: ADME, organism-based
Set-up: dose 1 mg/kg, route intravenous
SETTINGS: in vivo
Could you please report measured half-life for the items listed next?
Numbers only, in h.

COc1ccc(CN2CCC(c3cn(Cc4cccs4)c4ccccc34)CC2)cc1C(=O)O ... 3.1

Please give half-life, item by item, for the list that follows.
1. CCCCn1cc(C2CCN(CCOc3ccccc3C(=O)O)CC2)c2ccccc21
2. COc1ccc(CN2CCC(c3cn(Cc4cccs4)c4cc(F)ccc34)CC2)cc1C(=O)O
3. COCCn1cc(C2CCN(Cc3ccc(OC)c(C(=O)O)c3)CC2)c2ccccc21
4. CCOCCn1cc(C2CCN(CCOc3ccccc3C(=O)O)CC2)c2ccccc21
5. COCCn1cc(C2CCN(CCOc3ccccc3C(=O)O)CC2)c2ccc(F)cc21

1: 1.6; 2: 3.8; 3: 3.9; 4: 1.1; 5: 3.4

Please give half-life, item by item, for the list that follows.
1. O=C(O)c1ccccc1OCCN1CCC(c2cn(CCC3OCCO3)c3ccccc23)CC1
2. CCOCCn1cc(C2CCN(CCOc3ccccc3C(=O)O)CC2)c2cc(OC)ccc21

[2.9, 0.9]

---

MEASURED_TARGET: Adrenergic receptor alpha-1 (Rattus norvegicus, UniProt P15823+P23944+P43140)
TEST_DETAILS: Displacement of [3H]prazosin from adrenergic alpha-1 receptor in rat brain membranes
Type: cell membranes
OBSERVATION_TYPE: IC50

Example entries begin here.
O=C(O)c1ccccc1OCCN1CCC(c2cn(Cc3ccco3)c3ccccc23)CC1 ... > 10 µM
CCOCCn1cc(C2CCN(CCOc3ccc(C)cc3C(=O)O)CC2)c2ccccc21 ... 8.6 µM
CCOCCn1cc(C2CCN(CCOc3ccc(C(C)=O)cc3C(=O)O)CC2)c2ccccc21 ... > 10 µM
COc1ccc(CN2CCC(c3cn(Cc4cccs4)c4cc(F)ccc34)CC2)cc1C(=O)O ... > 10 µM
CCOCCn1cc(C2CCN(Cc3ccccc3C(=O)O)CC2)c2ccccc21 ... > 10 µM
O=C(O)c1ccccc1OCCN1CCC(c2cn(Cc3cccs3)c3ccccc23)CC1 ... 3.7 µM
CCOCCn1cc(C2CCN(Cc3cccc(C(=O)O)c3)CC2)c2cc(OC)ccc21 ... > 10 µM
COCCn1cc(C2CCN(Cc3ccc(OC)c(C(=O)O)c3)CC2)c2ccc(F)cc21 ... > 10 µM
CCOCCn1cc(C2CCN(CCOc3ccccc3C(=O)O)CC2)c2cc(F)ccc21 ... 10 µM

Moving on to the next compound.
Entry under review: COCCn1cc(C2CCN(CCOc3ccccc3C(=O)O)CC2)c2ccccc21 . Reported IC50? > 10 µM
